Attribution: the supplement of paper PMC9170038

tested on: K4 kissing-loop RNA reporter; assay: apparent KD of K4 kissing-loop reporter; higher = weaker reporter binding; details: Eterna round: R107; input ligand: FMN 200 uM;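 note: bound reporter read as fluorescence of individual clusters on recovered sequencing chips by microscopy, with normalized cluster intensities fitted with a binding model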
readout.kind: apparent KD of K4 kissing-loop reporter (nM)
Report the figure in nM without appending any unit label.

CGCAGUGAUGUUGCUAUUAUUCUUGAUUAACGAGGACCGGUACGGCCGCCACUCGAUUUCUAUCUGAUCCAGUGUUUUGUUGAGU [#22 K4 Tryptophan A Exclusion] = 296
ACUCUUGCGUAUGAUACCAGCUUGUACCGCCACAUAUAUUCUAAGAGUUGAGUGAUGUUUAGCCCUUGGCAGCAUACUUGUGCGU [theeternabot_exclusion_KL_Theo_B_42] = 706
GGUAGCAUGGCGGCCGCCACUGUUCGUGUUGCUAGCAGAUUCCAGUGAUGUUGGAAGCCUAGGUACAGGACCGGGCCAUGCUACC = 105
CGGCGCGGCGCGGCCGCCACUGCGCCUGGGUGCUCGCCGAGUGAUGUUCGUCGGCGGUUGGGUGGCAGGACCGGGUGCCGGCCCG [BDazzled - #18 SS Tryptophan B] = 930
CUCGAGUGAUGUUCGAUUAUGUAUACAGAUACCAGUGAAUUUUAACACCCUUGGCAGCUGGUAGAAUCAUUUUAAUUUUAACUAG [JR_SSTheophyA_Sub021] = 201
ACGAUUUACAGAAGGAGCGUGUAUUUAACUACAAUUAUCUUAGCGAGUGAUGUUCGUUUUACACAGGUAGGUCGCUGUAUAUCGA [JR_ExcArginiB_Sub011] = 218
GUGUGUGUCGGAGGAUAUGCGGUGGGUGUGGGCGGAUUAGUGAUGUUGGUUGUGGUGGUGGUGGGUGUAGAAGGUUGGUGUGUGU [RHig 3/7 C] = 710
GUCCACACUGCAGGAUAUGGAGGUAUAGCGAGGGAGUUUGGAAGCACACCUCUGGCAGUGAUGUUGCCAGAAGGGCGGUGCGGCG [Rauserin] = 82.4
UUUAUAAUGUCGGCCGCCACUGGAUUAAUAUUUGUAUAAUCUAGUUCUAAGUGAUGUUUAGAGUCCAGGACCGGGACAUUUGUUA [#09 K4 Tryptophan B Exclusion] = 395
ACGUGUCACUGAAGGAGCGUCUACCGAAUACGAGUGAUGUUGGUAUACCACUUAUAUAGUGGACAGGUAGGUCGCAGUGAUACGU [Arg B Ex t4] = 987

In: State, for K4 kissing-loop RNA reporter, measured apparent KD of K4 kissing-loop reporter of the sequence listed here: "GCUACUGCCUUAGGAUAUAGUUGAGUGAUGUUCAAGCAUAUGCAUGGGAAAACCAUGCAUAUGUCCCUAGAAGGGAGGCAGUAGC"
Out: 800

---

system: MS2 coat protein; experiment: apparent KD of MS2 coat protein, switch ON state; designed switch direction (-1 OFF switch, 1 ON switch): -1; higher = weaker reporter binding; details: FMN input: 0 or 200 uM; Eterna round: R93 (includes R88 designs)
readout.kind: apparent KD of MS2 coat protein (nM)
Report the figure in nM without appending any unit label.

GGAGGCGAAGGAUAUACAUGAGGAUCACCCAUGUGAGAGAAAAAAGUGAGAAAGAAAAGUAGAAGGUCGUUUCG [salish99-ex3-128] = 43.5

In: Return reported apparent KD of MS2 coat protein. Input sequence: AAGAACCGAGGAUAUACUAAAGAAAUGAAAAGAAAUAAAGAACAUGAGGAUCACCCAUGUAGAAGGCGGAAGAA [Nebefawre]
Out: 27.4

---

tested on: MS2 coat protein; experiment: apparent KD of MS2 coat protein; designed switch direction (-1 OFF switch, 1 ON switch): -1; higher = weaker reporter binding; settings: Eterna round: R95; input ligand: microRNA oligo, concentration not stated
readout.kind: apparent KD of MS2 coat protein
I'd appreciate it if you wrote the number followed by its unit.

AAAACGGCAGGAUAUACAUGAGGAUCACCCAUGUGAAAUAAAAUAAAAUAAAAUAAAAGUAGAAGGGCCAAAAA [Exclusion 3 #3] (puzzle: Exclusion 3) = 40.7 nM
CUGGUCCGAGGAUAUAUUAUGUGAAACAUGAGGAUCACCCAUGUUAUAUAAUGGAUGUAAAUAGAAGGCGGACUAG [Mat - Exclusion 5 - JL mod - D62] (puzzle: Exclusion 5) = 25.5 nM
UAGAUGGGAGGAUAUGCGUAGAUACGGAUUCGUGUAGUGCUACAUGAGGAUCACCCAUGUAGAAGGCCCGUCUU [JL-ex2-2.28 Mayanne mod] (puzzle: Exclusion 2) = 13.9 nM
AAAACUGCUCAGGAUAUUUGUGUGUCAGGGCAUAAAGAAGGGAGCACAUGAGGAUCACCCAUGUGUUGGGUUCC [Zasozaer] (puzzle: Exclusion 6) = 68.7 nM

In: State, for MS2 coat protein, measured apparent KD of MS2 coat protein of the sequence listed here: UAGGUGUGAGGAUAUGGUAAAGAUAAGAUGAUGAAAGAACUCCAGAAGGCACAUGAGGAUCACCCAUGUAGAUG [JL-ex4-2.16 Jieux mod] (puzzle: Exclusion 4)
Out: 33.3 nM

In: State, for MS2 coat protein, measured apparent KD of MS2 coat protein of the sequence listed here: CAGUACUGAGGAUAUACAUGAGGAUCACCCAUGUGCCUAAGCUAGGAUACUAGCAUUAGUAGAAGGCAGUACUG [Fiskers Ex 3 828 mod 15] (puzzle: Exclusion 3)
Out: 13.6 nM

In: State, for MS2 coat protein, measured apparent KD of MS2 coat protein of the sequence listed here: GGAUAGUGAGGAUAUGCAUACGGUGUAAGUCCCAGAUCGAAACAUGAGGAUCACCCAUGUAGAAGGCGCAAAAC [Begerila] (puzzle: Exclusion 2)
Out: 20.2 nM

---

test system: MS2 coat protein; test: apparent KD of MS2 coat protein; designed switch direction (-1 OFF switch, 1 ON switch): -1; higher = weaker reporter binding; conditions: input ligand: none
readout.kind: apparent KD of MS2 coat protein

Answered examples (4):
GCGGGAUAGCAAGGAUAUCCCGAGUCGCAAGGAAACAUCCACAUGAGGAUCACCCAUGUGGCUCUGGAGAAGGUGCGACGCAAA [Onveceanti] (Eterna round: R96, puzzle: Exclusion NG 2) = 13.4 nM
AAGGUGGCAGGAUAUACAUGAGGAUCACCCAUGUGAACGUAAGGAGACUCUCUCAAAGGUAGAAGGGUCGGUUC [Eternabot (L2) Solution 1] (Eterna round: R97, puzzle: Exclusion 3) = 121 nM
CUUUUGUGAGGAUAUUAGUAGUUUAUAAUUAAAAUUAUUACUGAGAAGGCACAUGAGGAUCACCCAUGUAAAAC [JR_Ex4_Sub029] (Eterna round: R97, puzzle: Exclusion 4) = 104 nM
GCUGGACAAGGAUAUGCAAUCGUGCUUCGGCACGUAAGAUCACAUGAGGAUCACCCAUGUAGAAGGUGUCCAGC [E2/3-C2] (Eterna round: R97, puzzle: Exclusion 2) = 24 nM

Please examine the following record next.
In: State, for MS2 coat protein, measured apparent KD of MS2 coat protein of the sequence listed here: GUAGAGUCAGGAUAUACGAGAUCGAAAGAUCAGUGGUCCUUACAUGAGGAUCACCCAUGUAGAAGGGACUCUAC [Omei mod 12 to Eli's favorate candidate (ch.parushev)] (Eterna round: R97, puzzle: Exclusion 2)
Out: 790 nM

---

system: MS2 coat protein; assay: apparent KD of MS2 coat protein; higher = weaker reporter binding; conditions: Eterna round: R107; input ligand: none
readout.kind: apparent KD of MS2 coat protein (µM)
Report the figure in µM without appending any unit label.

In: State, for MS2 coat protein, measured apparent KD of MS2 coat protein of the sequence listed here: AGUCUUGAACGAAGGAGCGACGUACAUGAGGAUCACCCAUGUGUGGAGCGAAAGCUCCAACGUCAGGUAGGUCGCGUUCGAGACA [Omei Arginine B SS A v2]
Out: 0.0128

In: State, for MS2 coat protein, measured apparent KD of MS2 coat protein of the sequence listed here: ACGGAUCGGAAACGAUCCGCGGCGAGGGUGCGAGGACCGGUACGGCCGCCACUCGGCUAACAUGAGGAUCACCCAUGUCCGAAGA [ETA NuPACK+Vienna+Vienna2 #9]
Out: 0.126

In: State, for MS2 coat protein, measured apparent KD of MS2 coat protein of the sequence listed here: UAAUGCAGGUCGGCCGCCACUACAACAUGAGGAUCACCCAUGUACAUGUUGUAGUACGGUAUGAGUAGGACCGGGACCUGCAUAA [Trp-Ms2-M'-T'-(MT)'_Design1]
Out: 0.299

---

# apparent KD of MS2 coat protein per entry
tested on: MS2 coat protein; experiment: apparent KD of MS2 coat protein; designed switch direction (-1 OFF switch, 1 ON switch): 1; higher = weaker reporter binding; settings: input ligand: FMN 200 uM
Report the figure in µM without appending any unit label.

Answered examples (3):
GGUCGGACAUGAGGAUCACCCAUGUGGUGACCGGAAACGGCAUAGGAUAUCUGUCCGAAAAGGUCAGAGAAGGGUGAACCGACC [Fiskers NG3ss - 69] (Eterna round: R96, puzzle: Same State NG 3) = 0.16
UGUUGUUAAUUAGGAUAUGGACACAUGAGGAUCACCCAUGUAAUGUCGAUGCUAUGUGGACACGUUCAGAAGGAAUGGCUAACA [SameState NG2 #92] (Eterna round: R96, puzzle: Same State NG 2) = 0.0297
GUAAAGAAUUAAGGAUAUUGAUUACAUAUGUUUAACAUGAGGAUCACCCAUGUGGGUUGCGGUAUCGAGAAGGUAAAAUAAUAG [Mat - same State NG 2 - JL mod - D86] (Eterna round: R96, puzzle: Same State NG 2) = 0.19

Please examine the following record next.
In: Return reported apparent KD of MS2 coat protein. Input sequence: CUACAGGCCAGAGGAUAUGGGAAAGGAAGUGUACCAGAAGGUUGGCCUCCUGAGUACAUGAGGAUCACCCAUGUAGAAAGGCGA [PowerStrip SSNG 1.6] (Eterna round: R96, puzzle: Same State NG 1)
Out: 0.143
